Taken from paper PMC7948515.

Target: horse spleen apoferritin (HSAF) (Equus caballus, UniProt P02791)
Sequence (P02791 2-175): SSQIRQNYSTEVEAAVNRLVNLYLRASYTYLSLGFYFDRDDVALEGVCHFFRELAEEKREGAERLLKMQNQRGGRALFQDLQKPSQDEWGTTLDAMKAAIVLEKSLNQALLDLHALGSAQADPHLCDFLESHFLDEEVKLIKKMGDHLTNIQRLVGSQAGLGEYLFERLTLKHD
Test: 1-AMA fluorescence displacement
reported.metric: IC50 (µM)
Please state the figure in µM; there is no need to write the unit.

Determine from records and report IC50 for CC(C)c1cccc(C2(C(F)(F)F)N=N2)c1F [compound 1] 17

Determine from records and report IC50 for CC(C)c1cccc(C(C)C)c1F [fropofol] 11
